target.entity: hGPR65 (Homo sapiens, UniProt Q8IYL9)
Construct: expressed in transfected cells; host or cells: HeLa (ATCC CCL-2), lentiviral transduction, pLX317
Sequence (Q8IYL9 whole entry): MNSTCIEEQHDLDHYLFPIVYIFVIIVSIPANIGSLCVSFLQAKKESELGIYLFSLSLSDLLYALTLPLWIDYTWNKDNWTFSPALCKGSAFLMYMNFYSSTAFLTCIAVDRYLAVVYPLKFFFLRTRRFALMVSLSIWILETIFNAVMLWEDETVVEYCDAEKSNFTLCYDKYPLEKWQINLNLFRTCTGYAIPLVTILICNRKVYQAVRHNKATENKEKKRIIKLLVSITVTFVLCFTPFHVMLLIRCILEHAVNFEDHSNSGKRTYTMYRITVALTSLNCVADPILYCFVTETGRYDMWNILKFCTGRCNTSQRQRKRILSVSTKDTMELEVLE
method.description: cAMP detection in HeLa expression cell line, hGPR65
Format: cell-based
condition.set: 1st hGPR column pair; NA = no activity; read-out: hGPR EC50
assay.readout: EC50 (µM)
Numbers only here, please. The scale is µM.

Form: item CN1N=C(SCc2ccc(Cl)cc2Cl)Sc2c1cnn(C)c2=O [BTB09089, reference compound] ; test system hGPR65 (Homo sapiens, UniProt Q8IYL9); EC50: 6.35

Form: item `COCc1ccc(-c2cc(O)n3ncc(C(=O)Nc4ccc(F)cc4)c3n2)cc1` ; test system hGPR65 (Homo sapiens, UniProt Q8IYL9); EC50: 27.9

Form: item `Cc1ccc(NC(=O)c2cnn3c(O)cc(-c4ccc(N5CCCC5)cc4)nc23)cc1` ; test system hGPR65 (Homo sapiens, UniProt Q8IYL9); EC50: 8.86

Form: item `COCc1ccc(-c2cc(O)n3ncc(C(=O)Nc4cccc(C)c4)c3n2)cc1` ; test system hGPR65 (Homo sapiens, UniProt Q8IYL9); EC50: 4.89

Form: item `CCOC(=O)c1cnn2c(O)cc(C)nc12` ; test system hGPR65 (Homo sapiens, UniProt Q8IYL9); EC50: 77.6

Form: item `Cc1ccc(NC(=O)c2cnn3c(O)cc(-c4ccc(N5CCOCC5)c(Cl)c4)nc23)cc1` ; test system hGPR65 (Homo sapiens, UniProt Q8IYL9); EC50: 1.07

Form: item `CC(C)OCc1ccc(-c2cc(O)n3ncc(C(=O)Nc4ccccc4)c3n2)cc1` ; test system hGPR65 (Homo sapiens, UniProt Q8IYL9); EC50: 3.72

Form: item `Cc1ccc(NC(=O)c2cnn3c(O)cc(-c4cccc(C)c4)nc23)cc1` ; test system hGPR65 (Homo sapiens, UniProt Q8IYL9); EC50: 3.71

Form: item `Cc1ccc(NC(=O)c2cnn3c(O)cc(-c4ccc(COC(C)C)cc4)nc23)c(Cl)c1` ; test system hGPR65 (Homo sapiens, UniProt Q8IYL9); EC50: 4.26

Form: item `COCc1ccc(-c2cc(O)n3ncc(C(=O)N4CCS(=O)(=O)CC4)c3n2)cc1` ; test system hGPR65 (Homo sapiens, UniProt Q8IYL9); EC50: 11

Form: item `CCCc1cc(-c2cc(O)n3ncc(C(=O)Nc4ccccc4)c3n2)no1` ; test system hGPR65 (Homo sapiens, UniProt Q8IYL9); EC50: 1.12

Form: item `Cc1ccc(NC(=O)c2cnn3c(O)cc(-c4ccc(C(F)(F)F)cc4)nc23)cc1` ; test system hGPR65 (Homo sapiens, UniProt Q8IYL9); EC50: 0.114

Form: item `Cc1ccc(NC(=O)c2cnn3c(O)cc(-c4ccc(N5CCOCC5)nc4)nc23)cc1` ; test system hGPR65 (Homo sapiens, UniProt Q8IYL9); EC50: 5.02

###

target.entity: hGPR65 (Homo sapiens)
Construct: expressed in transfected cells; host or cells: HeLa (ATCC CCL-2), lentiviral transduction, pLX317
method.description: cAMP detection in HeLa expression cell line, hGPR65
Assay type: cell-based
condition.set: HeLa, 1st hGPR column pair; relative to 100uM forskolin (100%) and DMSO (0%); NA = no activity; read-out: hGPR Max Activity %
Threshold check on Emax: strictly below 70% is MET; on or above 70% is NOT MET.

Dear colleague, could you confirm whether Emax of `CC(C)OCc1ccc(-c2cc(O)n3ncc(C(=O)Nc4ccccc4)c3n2)cc1` falls below 70%? Thanks.
NOT MET

Dear colleague, could you confirm whether Emax of `Cc1ccc(NC(=O)c2cnn3c(O)cc(-c4ccc(N5CCOCC5)nc4)nc23)cc1` falls below 70%? Thanks.
MET

Dear colleague, could you confirm whether Emax of `COCc1ccc(-c2cc(O)n3ncc(C(=O)N4CCS(=O)(=O)CC4)c3n2)cc1` falls below 70%? Thanks.
MET

Dear colleague, could you confirm whether Emax of `Cc1ccc(NC(=O)c2cnn3c(O)cc(-c4ccc(N5CCOCC5)cc4)nc23)cc1` falls below 70%? Thanks.
NOT MET

Dear colleague, could you confirm whether Emax of `COc1cc(-c2cc(O)n3ncc(C(=O)Nc4ccc(C)cc4)c3n2)ccc1Cl` falls below 70%? Thanks.
NOT MET

Dear colleague, could you confirm whether Emax of `Cc1ccc(NC(=O)c2cnn3c(O)cc(-c4ccc(COC(C)C)cc4)nc23)cn1` falls below 70%? Thanks.
NOT MET

Dear colleague, could you confirm whether Emax of `COCc1ccc(-c2cc(O)n3ncc(C(=O)Nc4ccc(C(C)C)cc4)c3n2)cc1` falls below 70%? Thanks.
NOT MET

Dear colleague, could you confirm whether Emax of `COc1cc(-c2cc(O)n3ncc(C(=O)Nc4ccc(C)cc4)c3n2)ccc1F` falls below 70%? Thanks.
MET

Dear colleague, could you confirm whether Emax of `Cc1ccc(NC(=O)c2cnn3c(O)cc(-c4ccc(COC(C)C)cc4)nc23)c(Cl)c1` falls below 70%? Thanks.
NOT MET

Dear colleague, could you confirm whether Emax of CN1N=C(SCc2ccc(Cl)cc2Cl)Sc2c1cnn(C)c2=O [BTB09089, reference compound] falls below 70%? Thanks.
MET

Dear colleague, could you confirm whether Emax of `CC(C)OCc1ccc(-c2cc(O)n3ncc(C(=O)Nc4ccccn4)c3n2)cc1` falls below 70%? Thanks.
NOT MET

Dear colleague, could you confirm whether Emax of `COc1cccc(-c2cc(O)n3ncc(C(=O)Nc4ccc(C)cc4)c3n2)c1` falls below 70%? Thanks.
NOT MET

Dear colleague, could you confirm whether Emax of `Cc1ccc(NC(=O)c2cnn3c(O)cc(-c4ccc(F)cc4)nc23)cc1` falls below 70%? Thanks.
NOT MET

Dear colleague, could you confirm whether Emax of `COCc1ccc(-c2cc(O)n3ncc(C(=O)Nc4cccc(C)c4)c3n2)cc1` falls below 70%? Thanks.
NOT MET

Dear colleague, could you confirm whether Emax of `Cc1ccc(NC(=O)c2cnn3c(O)cc(COc4ccccc4)nc23)cc1` falls below 70%? Thanks.
MET

Dear colleague, could you confirm whether Emax of `CCN(CC)C(=O)c1cnn2c(O)cc(-c3ccc(COC)cc3)nc12` falls below 70%? Thanks.
MET

Dear colleague, could you confirm whether Emax of `Cc1ccc(NC(=O)c2cnn3c(O)cc(-c4ccc(COC(C)C)cc4)nc23)nc1` falls below 70%? Thanks.
NOT MET

###

Consider the following compounds; for each one, report its log10 of EC50.
target.entity: mGPR65 (Mus musculus, UniProt Q61038)
Construct: expressed in transfected cells; host or cells: HeLa (ATCC CCL-2), lentiviral transduction, pLX317
Sequence (Q61038 whole entry): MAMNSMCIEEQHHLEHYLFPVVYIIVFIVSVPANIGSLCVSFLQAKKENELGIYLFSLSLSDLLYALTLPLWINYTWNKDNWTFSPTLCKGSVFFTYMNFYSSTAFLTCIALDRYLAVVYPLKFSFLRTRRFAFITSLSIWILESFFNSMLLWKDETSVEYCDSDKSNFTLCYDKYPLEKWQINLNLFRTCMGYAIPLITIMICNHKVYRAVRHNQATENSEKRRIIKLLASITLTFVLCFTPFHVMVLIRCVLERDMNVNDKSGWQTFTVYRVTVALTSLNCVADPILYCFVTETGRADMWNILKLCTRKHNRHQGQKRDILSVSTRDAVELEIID
method.description: cAMP detection in HeLa expression cell line, mGPR65
Type: cell-based
condition.set: 1st mGPR column pair; NA = no activity; read-out: mGPR EC50
Log scale reminder: EC50 in nM, then log10 taken.

Consider `CC(C)OCc1ccc(-c2cc(O)n3ncc(C(=O)Nc4ccccn4)c3n2)cc1` . Its measured log10 of EC50 is 3.97

Consider `CCOCc1ccc(-c2cc(O)n3ncc(C(=O)Nc4ccccc4)c3n2)cc1` . Its measured log10 of EC50 is 3.74

Consider `Cc1ccc(NC(=O)c2cnn3c(O)cc(-c4ccc(COC(C)C)cc4)nc23)cn1` . Its measured log10 of EC50 is 3.19

Consider `CCOCc1ccc(-c2cc(O)n3ncc(C(=O)Nc4ccc(C)cc4)c3n2)cc1` . Its measured log10 of EC50 is 2.74

Consider `Cc1cnc(NC(=O)c2cnn3c(O)cc(-c4ccc(COC(C)C)cc4)nc23)cn1` . Its measured log10 of EC50 is 3.36

Consider `COc1cccc(Cc2cc(O)n3ncc(C(=O)Nc4ccccc4)c3n2)c1` . Its measured log10 of EC50 is 3.81

Consider `COCc1ccc(-c2cc(O)n3ncc(C(=O)Nc4ccccc4C)c3n2)cc1` . Its measured log10 of EC50 is 4.42

Consider `Cc1ccc(NC(=O)c2cnn3c(O)cc(-c4ccc(C(F)(F)F)cc4)nc23)cc1` . Its measured log10 of EC50 is 3.54

Consider Cc1ccc(NC(=O)c2cnn3c(O)cc(C(C)Cn4nccc4C)nc23)cc1 (stereo not drawn) . Its measured log10 of EC50 is 3.45

Consider `CC(C)OCc1ccc(-c2cc(O)n3ncc(C(=O)Nc4cccnc4)c3n2)cc1` . Its measured log10 of EC50 is 3.40

Consider `Cc1ccc(NC(=O)c2cnn3c(O)cc(-c4ccc(N5CCOCC5)nc4)nc23)cc1` . Its measured log10 of EC50 is 3.53

Consider `Cc1ccc(NC(=O)c2cnn3c(O)cc(-c4ccc(C(=O)NC(C)C)cc4)nc23)cc1` . Its measured log10 of EC50 is 2.64

Consider `Cc1ccc(NC(=O)c2cnn3c(O)cc(-c4ccc(COC(C)C)cc4)nc23)c(Cl)c1` . Its measured log10 of EC50 is 3.00

Consider `Cc1ccc(NC(=O)c2cnn3c(O)cc(-c4ccc(-c5ccccc5)cc4)nc23)cc1` . Its measured log10 of EC50 is 2.57

Consider `CCCc1cc(-c2cc(O)n3ncc(C(=O)Nc4ccccc4)c3n2)no1` . Its measured log10 of EC50 is 2.39

Consider `Cc1[nH]c2ccccc2c1Cc1cc(O)n2ncc(C(=O)Nc3ccccc3)c2n1` . Its measured log10 of EC50 is 2.81

Consider `Cc1ncc(NC(=O)c2cnn3c(O)cc(-c4ccc(COC(C)C)cc4)nc23)cn1` . Its measured log10 of EC50 is 3.68

Consider CCN1CC(c2cc(O)n3ncc(C(=O)Nc4ccc(Cl)cc4)c3n2)CC1=O (stereo not drawn) . Its measured log10 of EC50 is 2.82
